tested on: HCC-44; test: relative viability (nuclei count vs DMSO), 5 days (fraction); higher = more cells survive; conditions: first compound 2.53 µM
relative viability under 1 gets class 1, anything at or over 1 gets class 0.

Field: below-cutoff. Rule: recorded relative viability strictly less than 1. Subject: Cc1cnc(-c2cnc(NCCNc3ccc(C#N)cn3)nc2-c2ccc(Cl)cc2Cl)[nH]1 + CC(C)C[C@H](NC(=O)[C@H](Cc1ccccc1)NC(=O)c1cnccn1)B(O)O [Bortezomib] (partner 0.002 µM)
class 1

Check Cc1cnc(-c2cnc(NCCNc3ccc(C#N)cn3)nc2-c2ccc(Cl)cc2Cl)[nH]1 + C[C@]1(O)C[C@@H](c2nc(-c3ccc4ccc(-c5ccccc5)nc4c3)c3c(N)nccn32)C1 [Linsitinib] (partner 1 µM) too.
class 1

What do we get for Cc1cnc(-c2cnc(NCCNc3ccc(C#N)cn3)nc2-c2ccc(Cl)cc2Cl)[nH]1 + CCNC(=O)c1noc(-c2cc(C(C)C)c(O)cc2O)c1-c1ccc(CN2CCOCC2)cc1 [Luminespib] (partner 0.01 µM) ?
class 0

Record: O=c1[nH]c2ccccc2n1C1CCN(CCCC(c2ccc(F)cc2)c2ccc(F)cc2)CC1 [Pimozide] + CC(=O)c1c(C)c2cnc(Nc3ccc(N4CCNCC4)cn3)nc2n(C2CCCC2)c1=O [Palbociclib] (partner 0.5 µM)
class 1

Next: O=c1[nH]c2ccccc2n1C1CCN(CCCC(c2ccc(F)cc2)c2ccc(F)cc2)CC1 [Pimozide] + O=C(CCCCCCC(=O)Nc1ccccc1)NO [Vorinostat] (partner 1 µM)
class 0

Check O=c1[nH]c2ccccc2n1C1CCN(CCCC(c2ccc(F)cc2)c2ccc(F)cc2)CC1 [Pimozide] + C[C@]1(O)C[C@@H](c2nc(-c3ccc4ccc(-c5ccccc5)nc4c3)c3c(N)nccn32)C1 [Linsitinib] (partner 1 µM) too.
class 1

Please give the result for Cc1cnc(-c2cnc(NCCNc3ccc(C#N)cn3)nc2-c2ccc(Cl)cc2Cl)[nH]1 + Cc1cc(Nc2cc(N3CCN(C)CC3)nc(Sc3ccc(NC(=O)C4CC4)cc3)n2)n[nH]1 [Tozasertib] (partner 0.1 µM) too.
class 1

Same lookup for Cc1cnc(-c2cnc(NCCNc3ccc(C#N)cn3)nc2-c2ccc(Cl)cc2Cl)[nH]1 + CC1(C)CCC(c2ccc(Cl)cc2)=C(CN2CCN(c3ccc(C(=O)NS(=O)(=O)c4ccc(N[C@H](CCN5CCOCC5)CSc5ccccc5)c(S(=O)(=O)C(F)(F)F)c4)cc3)CC2)C1 [Navitoclax] (partner 0.5 µM) , please.
class 0

# repeat for Cc1cnc(-c2cnc(NCCNc3ccc(C#N)cn3)nc2-c2ccc(Cl)cc2Cl)[nH]1 + CS(=O)(=O)CCNCc1ccc(-c2ccc3ncnc(Nc4ccc(OCc5cccc(F)c5)c(Cl)c4)c3c2)o1 [Lapatinib] (partner 2 µM)
class 0

The reported measurements were obtained from the supplement of paper PMC10307832.
